Please respond with reported Ratio for every item in the list.
assay: Drug metabolism ratio of CES1 mediated compound hydrolysis in human liver microsomes to CES2-mediated compound hydrolysis in human intestine microsomes; type: ADME

// Ratio lookup, key: `CC(C)c1c(C(=O)Nc2ccccc2)c(-c2ccccc2)c(-c2ccc(F)cc2)n1CC[C@@H](O)C[C@@H](O)CC(=O)Oc1ccccc1`
3.8

Would you kindly share the measured Ratio for `CC(C)c1c(C(=O)Nc2ccccc2)c(-c2ccccc2)c(-c2ccc(F)cc2)n1CC[C@@H](O)C[C@@H](O)CC(=O)Oc1ccc(F)cc1` ?
1.9

What does the record list as Ratio for `CCCCCCCCCCOC(=O)C[C@H](O)C[C@H](O)CCn1c(-c2ccc(F)cc2)c(-c2ccccc2)c(C(=O)Nc2ccccc2)c1C(C)C` ?
4.4

Tell me the measured Ratio of `CC(C)c1c(C(=O)Nc2ccccc2)c(-c2ccccc2)c(-c2ccc(F)cc2)n1CC[C@@H]1C[C@@H](O)CC(=O)O1` , please.
1.7

Given the entry `CC(C)c1c(C(=O)Nc2ccccc2)c(-c2ccccc2)c(-c2ccc(F)cc2)n1CC[C@@H](O)C[C@@H](O)CC(=O)OC1CCCCC1` , report its measured Ratio.
4.9

Bench note: what Ratio did `COC(=O)C[C@H](O)C[C@H](O)CCn1c(-c2ccc(F)cc2)c(-c2ccccc2)c(C(=O)Nc2ccccc2)c1C(C)C` show?
30.5

Requested field: Ratio. Item: `CCOC(=O)C[C@H](O)C[C@H](O)CCn1c(-c2ccc(F)cc2)c(-c2ccccc2)c(C(=O)Nc2ccccc2)c1C(C)C`
40.1

I am curious: what Ratio value has been reported for `CCCCOC(=O)C[C@H](O)C[C@H](O)CCn1c(-c2ccc(F)cc2)c(-c2ccccc2)c(C(=O)Nc2ccccc2)c1C(C)C` ?
5.7

Form field: reported Ratio of `CCCCCCCCOC(=O)C[C@H](O)C[C@H](O)CCn1c(-c2ccc(F)cc2)c(-c2ccccc2)c(C(=O)Nc2ccccc2)c1C(C)C`
5.3

State the recorded Ratio for this entry: `CC(C)c1c(C(=O)Nc2ccccc2)c(-c2ccccc2)c(-c2ccc(F)cc2)n1CC[C@@H](O)C[C@@H](O)CC(=O)OCc1ccccc1`
9.1

So what's the measured Ratio for this one? `C=CCOC(=O)C[C@H](O)C[C@H](O)CCn1c(-c2ccc(F)cc2)c(-c2ccccc2)c(C(=O)Nc2ccccc2)c1C(C)C`
5.1

// Ratio lookup, key: `COc1ccc(OC(=O)C[C@H](O)C[C@H](O)CCn2c(-c3ccc(F)cc3)c(-c3ccccc3)c(C(=O)Nc3ccccc3)c2C(C)C)cc1`
3.4
